assay: soluble fraction after stress (log2 fold change); higher = more stays soluble; pooled small domains, quantitative proteomics; conditions: stress: 75 degC;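 note: 20 min heating vs room temperature control held 20 min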
The threshold is inclusive: soluble fraction (log2) of exactly -0.6 counts as y; values below receive n.

Sequence Entry | Classification
HMSADLVYLRKRLQDAIAQLPENMRTAYTLFQIANRSIREISELTGASESLVKVRIHRAKGKLQKQLEDLK | n
HMEETLRELAVKISKQVIKTGRNSVLEPMNPYERRIIHAVISEIEGVSSKSVGEDPNRKVVIMSTNP | y
HMKHTQTDEGELLSTLRTLFPNSSSSSLRKMLTQGRILVNQEVVHRAKHALQAGDEIEVLARQ | y
HMSLTMPKLIGMHLFQAERTLNYYGFQYKVEGPDSASVVIDQYPKEGVTVDPHYPITLKIGPSA | n
HMYEGLPVTLIIDGRVIEANLAKANRDMAWLERELANSGVRSHHDVFFATLDSRGQLYYQVKN | n
HMGPSLDAVREQIRDLIAEEDKSAPYSDLSLVAELEKRGIHISRRTIAKYRGEMGIPNSDQRRYF | y
HMKIEEIAYSTFISMLDKGEVSKVELKDNLIYIETKADDKTIYTTGRMEDPDLTNRLIEAGVDFTEIE | y
HMRLEEVSVPQRLLAAIAEEREVQIGIVDGRGGTRVLRVEPLALEGGRLRARDVESGEEFTVLIHRVLL | n
HMAQISDESALYDLVKSVLDANPQSIADYKAGRDRALGFLMGQAMKLSKGKANPPVINKILKEMLDK | y
HMHRTMFYLDVDLAEGQSVKMAVHEDDDPGELAARFADEHQLKSRAMEKLRSVIEENVRLHRRNQ | y
HMLALKSGQVVVGTIIRRLDNTTAMLRIGNQLFETSFAKGLPKSNHILLRYDAMQGNRFIFTMVE | n
HMEVVVPDFEKIYIRDLDKFVEGHNVRYEIVDSIYNLEKDKGTVVDQDPEPGSKVKHGRVIYLTVNAML | y
HMPTTLEGIEKYLSSGLIKGIGPHLAGKLVEAFGTRVFEVVEHQPERLRTVGGIGRTRAESITSAWRDQ | y
HMNHLSYEQRLKIKEMLDGGFKKIDIARALGVHNATIYREIERGSVNGIYNPNKSEEQYRDHLSEK | y
HMPLLKIGAQGHDVRVVQEALQRAGYAIEGVTGIFDEATREAVLAFQRDQQLTESGTVDRATWHALRR | y
HMDIINLADNIARLRRRRQITQEELADYLGVTKAAVSKWENRQTMPDILLLPRLAGLFEVTIDELVGY | n
HMGFDTVVEKVLGLITSRPMTSRDIQMTLGRSREHTSRLMNRLYKEGLVDRNTSSKPFSYIITEKGREKI | y

* * *

assay: soluble fraction after stress (log2 fold change); higher = more stays soluble; pooled small domains, quantitative proteomics; settings: stress: 75 degC
Reported values of soluble fraction (log2) for individual entries
Metric Name: soluble fraction (log2)

Sequence Entry | Result
HMRNKTVKEVLDYIEKNSEFIFFYYSKAIDTKRIVSLSVKDQPITVILDQLFKNTDVLYEIKDRQISLKRE | 0.1
HMNETNKMPNLVNQTDSSAIAQLNAMELGLKITTKEESSETVLAGYVIRTEPAADTELTKNQAVTVYVS | -0.00951
HMGGQYQVRPGETLNQIAARVRPSNMSLSETQKAIIQANPDIFKNGNPNLIFAGDILRIPTGNQI | 0.466
HMSLLLTPREASVWASEYLGKKVTSNNIIYLLNYGKIANHSTDLKENLIDKNELKIYYDSTIKSQKH | -0.755
HMSTMTDAQRHLFANKLSQLPEMGKYSHGTESYQQFAVRIAEMLQTPKKFKELYPYLQKVGFKA | -0.379
HMLGARSLNEAVARNLPQILAKYQLIHIAGKNGFNPELQGRGYVQYEYVDTELKDLMALADIVVSR | -1.52
HMNKSYTVPDVRGMTVEEAQEAEGVKDIFTVHVQGTRKTDEYQPGQIVEQDPIAGRTRKSNFVIEVYVAE | -0.34
HMASVLTAKLSEREVDVLNLLARGFTNADIAAQLHLSEGTVRNHVSTIFAKLDVNDRTQAAVIAIRHGL | -2.52

* * *

Reported values of soluble fraction (log2) for individual entries
assay: soluble fraction after stress (log2 fold change); higher = more stays soluble; pooled small domains, quantitative proteomics; conditions: stress: 75 degC

Sequence Entry | soluble fraction (log2)
HMKREELTQQTKQNLREAFWSLYIQKPIEKITVKEITDIAGYNRGTFYLYYKDTYDLLAKIE | -0.279
HMTMGAAEAQALKDEALELYRTGGTQEDVVRAIEMYEQAAEAGNAQAASDLAYLKANGVYETAMNN | 0.263
HMQYYITKIANYDQVSPNLLVRTAEGQYMVKTNADILDTDVTKLTEEEIRKDWGYLFENGFSELV | -0.498
HMPKDLEKRAAILAAAKHLFPVHGFEGTSMDAIAALANVSKLTVYSHFKDKESLFTEAIREK | -0.0647
HMKSERHALILSLIEKKNVETQEDLAELLKERGVAVTQATVSRDIKELRLIKVLSETGGYKYATVDKAE | -0.908
HMHREITGSLAERNGRYTAILNLYDEDGKRRQKSIALGIPVKGNKRKAQAQLEELKRAYSLGLPQ | -0.346
HMHRTRNAERTRAAVLKAAAEVLAERGTGASLARIAEVAGVSKSGLLHHFANREQLIVALLED | -1.16
HMQSAKLSYSDFMQKVNAGDVVSVKIQGPKISGVTTGGGKFMTYAPEDPTLVSTLMQKKVEVMAEP | 0.139

* * *

Reported values of soluble fraction (log2) for individual entries
assay: soluble fraction after stress (log2 fold change); higher = more stays soluble; pooled small domains, quantitative proteomics; conditions: stress: 75 degC

Sequence Entry | soluble fraction (log2)
HMAEVPDLRNKTQQEAEAELTNHNLKLGNVTEEYSATVEAGRVISQSTSYGTKVLEGSSVDITISKGPEPT | 0.135
HMIESVMVGIKELLGDTIDQKYEKYIRLGGIPSDEVDEFNSVFSAYEKVNGNHNGKKKYDYVMNNLPIIPV | -0.574
HMKDGAKYFQLFGLLKNEINRGIYQSGQKIPGENELAEKYGMSRQTVRQALSLLEQESLIERRQGSGTYVR | -0.121
HMKYVDYYATLGVARDADLATITKAYRKLARQTHPDLNQGADNEARFKAAAEAYATLKHPEKRAAYDELGQ | 0.0183
HMELNESVLKALYEKFREMSGSKGFITEDEVIIQLEKENPDITPDQQAEIFKYLYDTPLQIY | -0.268
HMLPVQGEEVAPGLYKFDFPFLADKRVWEKTINAFKAEHPELKVNYIYTGPDELNSKKKTHVLVYVFTES | -0.539
HMPLPLYVQIKESLRGQIFDGTYGEHERLPSENDLMSSFGVSRITVRQALSDLEKEELIFKVPGKGAFVSR | -1.5
HMGRKPATTIPLQVRNAVLDLYRTKYYGANFQHYTELLHEHEGIRISTSSVAKILEAEYILSPK | -1.58
HMVVVPDVKGLKIEEAAEFFKNNNLHYNVIDSVFSKDVEPGAIVELSPLAGSKVKEGRIVFITVNALTS | -1.12
HMGDLDLVTFGQRLRHLRRSRNMTLSELGERVGRAPSQLSLLENGKREPKLSLLTALAKALDVSVEEL | -1.05
HMGMTDEELNREEERVVAELEAKDEEELTIYNEEDLTFEETLDLPEGSLMRDRENGMIYLKVLDIWMPY | -0.575
HMSDQTYVKDPETGEIFRVHKRVWETGEFWRDPVWGNILGGVERGSELERLLREEGWRPLQQSLEGFPEQ | -0.284
HMSSIRDVVPEGLLSDREKLVLVLAFDRDLDGPDMARTLGISANTVRVLKARALKKLRQAGIQP | -0.954
HMGFDTSMNKYTIDDLLKLLELGSNPSQAEIVNKITNFNTIFVDNSGVIQFLNNIQDKLLDNFK | -0.734
HMQASIPQSQKDALAKELQALPPHGRNRVLSTFRQQFNISSEKISEFITTPEHLSFIRSKIAEVESDS | 0.267
HMNAISIDEAKKIALAKVSGASDQHIRIEADHDDGRLVYEGEIHYGRVEYEFEIDGSTGAIIEWDADRK | -0.286
HMNEKGTNSTINEITRISKPGRRVYVGSAEIPKVKSGRGLVLISTSKGVMTGAEAAKAKLGGELLLKV | -0.000493
HMPDYAFEGVVIKLTHRDYDRWKAGFPDVDLPPYLTARDAWLSEQTPADRKNWFVSTATDLRNFQKREAI | -1.26
HMTGGMVTYIIEKGEGFFSLERKFGLSENELIKLNPSLKSGLKSEMQINIPKENYDRYVASS | -0.45
HMELSESLENYLVVIYEAHLRNEIARIKDMTASLSVKHTSAIDAIKKLEDLGIVNYEKRGFVKLTQSGIEK | 0.00204
HMDTDVFLMDLRGESRDYAEEVLINNNLEVKVIILPFSKRHYPGKVVEMRPSPFTKVKKGRIITLSVAGN | -3.73
HMTEEYAVLWRVARQTLKPEAFDVLWMKYREQLSIAEIAGIMNRSETSVKVMLHRARKNLGTALESS | -1.75
HMETGFADTLRKFRKEADMTQEKLAEALGVTTGAVYKWENGRSTPEVRLLVEMADLFGTSVDALLDYKVR | -1.33
HMTLPEKSKRLFSQDDFWDQIFYRIGEGQSLREVSKYYKIPYTTIHDRIHSDEGIKLKYLEALTS | -0.882
HMFTDEELEHIRSALIQAGIRLSKELGLQKMSVEKLTAAVGIAKGSFYMFFGSKEDFILEVAEYTGAQ | -0.976
HMTVKEVGYDTFLTMLDKKEIKQVQVEDNQIIFSDNADPVNYYKTGVFNDPDLVNRLQDAGVEFG | 1.01
HMASVLTGMLGRVTGELAPKGIVMVGNETWTAVSEDDSVIRIGEPVEVRSVEGLILTVFRRID | -2.66
HMSETAVTYNEDFEADGSLRPNEQAVLDAFTGVLKLTVSELEKKTGLRNVVPVVASLMAKGAVEVSEELK | -0.0304
HMLAVSVDKDGKVYIQDSETAVDAVTAKLRAISGNNSEIRIFVRGDADVNYGRIMEIMGVINAAGFRKVAL | -0.111
HMEKSQIHLIHTRYVNPEQLVPILSMVIPAENIYVKSDSNLIIINGSSEMLREVESIVSKLDVPS | -0.255
HMLKFGLSQRELQILALLPTDEPLSILAKSLFISESTLKTHLTHIYRKLGVKNRLQAINVARKAGLLK | -1.59
HMDLANLQNGQTLPLQRDVEVISIPFGKTISLSEDSVVSIMQAKGSSVSVAYEGRLYLIEGSNLDALGLEP | -1.1
HMSAEDYLERIHELIESKGTAHVADIAQSLGVGKPSVTSMVQKLADEGYLNYEKYRSLTLTDSGRSIA | 0.165
